FYI, the data here is from the supplement of paper PMC10567573.

B1: TSN (parent)
chain: FVELQGFLAAEQDIREEIRKVVQS

Variants of: B1
Protocol Details: protein stability index of a GFP-peptide fusion (GPS, HEK-293T) (PSI 1-6); higher = more stable;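 further: lentivirally expressed fusions sorted by FACS into six bins by GFP to DsRed ratio, PSI derived from sequencing read proportions per bin multiplied by bin number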
Experimental Context: c terminus: a fixed tail appended
Exercise: for every item that follows, state its recorded protein stability index.
Reply with just the number.

# variant FVELQGFLAAEQDIREEIRKVIQS [V22I] ; its protein stability index = 3.83

# variant FVELQGFLAAEQFIREEIRKVVQS [D13F] ; its protein stability index = 1.85

# variant FVELQGFLAAEQDIREEIVKVVQS [R19V] ; its protein stability index = 1.97

# variant FVELQGFLAAEQDRREEIRKVVQS [I14R] ; its protein stability index = 1.64

# variant FVMLQGFLAAEQDIREEIRKVVQS [E3M] ; its protein stability index = 2.97

# variant FRELQGFLAAEQDIREEIRKVVQS [V2R] ; its protein stability index = 3.34

# variant FVELQGFLEAEQDIREEIRKVVQS [A9E] ; its protein stability index = 2.47
